tested on: writhing in Cox standard strain albino male mice; assay: mouse-writhing test (analgesic), acetic acid-induced writhing; type: in vivo; conditions: oral (p.o.), corn oil-acacia emulsion, writhing induced by intraperitoneal 0.55% (55 mg/kg) acetic acid, read-out: ED50 (effective dosage needed to inhibit 50% of the writhing)
Recorded ED50, one value per entry.
Write the value in mg/kg as a bare number.

Below: 3 molecules and their reported ED50.
* COc1ccc(-c2nc(-c3ccc(F)cc3)sc2-c2ccc(OC)cc2)cc1 | 0.82
* COc1ccc(-c2nc(-c3ccc(Cl)cc3)sc2-c2ccc(OC)cc2)cc1 | 3.75
* COc1ccc(-c2nc(-c3ccc(Br)cc3)sc2-c2ccc(OC)cc2)cc1 | 1.46

Consider now this further molecule.
According to the records, this molecule COc1ccc(-c2nc(-c3ccccc3)sc2-c2ccc(OC)cc2)cc1 displays ED50 of 2.3
